Data provenance is ChEMBL document CHEMBL1142492.

assay.procedure: Half life in Sprague-Dawley rat at 1 mg/kg, iv
test.parameters: in vivo
Recorded half-life, one value per entry.

## Input Param item = O=C(Nc1nc(-c2ccncc2)cs1)C1COc2ccccc2O1 (stereo not given) ; retrieve measured half-life.
## Output 24 min

## Input Now consider COc1cc(-c2cn[nH]c2)ccc1NC(=O)C1COc2ccccc2O1 (stereo not given) .
## Output 156 min

## Input Follow-up entry: O=C(Nc1ccc(-c2c[nH]cn2)cc1)C1COc2ccccc2O1 (stereo not given)
## Output 132 min

## Input Repeat for the following compound: O=C(Nc1ccc(-c2ccncc2)cc1)C1COc2ccccc2O1 (stereo not given)
## Output 30 min

## Input Then what about the compound CN(C)CCOc1cc(-c2cn[nH]c2)ccc1NC(=O)C1COc2ccccc2O1 (stereo not given) [SR-3677] ?
## Output 48 min

----------
Below, each entry is listed alongside its reported Vd.
assay.procedure: Volume of distribution in Sprague-Dawley rat at 1 mg/kg, iv
test.parameters: in vivo
Numbers only; they are read as L/kg.

## Input Given COc1cc(-c2cn[nH]c2)ccc1NC(=O)C1COc2ccccc2O1 (stereo not given) , state its recorded Vd.
## Output 1

----------
tgt: CYP2C9 (Homo sapiens)
Sequence (P11712 whole entry): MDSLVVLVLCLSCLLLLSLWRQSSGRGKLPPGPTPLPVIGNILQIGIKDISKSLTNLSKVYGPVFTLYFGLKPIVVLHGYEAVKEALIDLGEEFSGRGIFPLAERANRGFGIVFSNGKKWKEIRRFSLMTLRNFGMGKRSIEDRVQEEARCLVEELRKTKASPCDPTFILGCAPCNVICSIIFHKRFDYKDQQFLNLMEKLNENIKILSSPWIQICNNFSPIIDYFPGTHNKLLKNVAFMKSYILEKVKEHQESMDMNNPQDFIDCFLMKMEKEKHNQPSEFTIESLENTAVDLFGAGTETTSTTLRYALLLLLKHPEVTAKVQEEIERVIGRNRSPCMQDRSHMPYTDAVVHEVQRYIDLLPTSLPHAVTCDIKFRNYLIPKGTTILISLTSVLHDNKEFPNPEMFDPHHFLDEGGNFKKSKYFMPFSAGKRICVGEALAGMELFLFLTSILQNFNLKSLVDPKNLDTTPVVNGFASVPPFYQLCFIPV
assay.procedure: Inhibition of human CYP2C9 at 10 uM
Assay type: ADME
// values below are reported inhibition at 10 µM
Report the figure in % without appending any unit label.

Solved entries:
CN(C)CCOc1cc(-c2cn[nH]c2)ccc1NC(=O)C1COc2ccccc2O1 (stereo not given) [SR-3677] ... 80
O=C(Nc1nc(-c2ccncc2)cs1)C1COc2ccccc2O1 (stereo not given) ... 96
O=C(Nc1ccc(-c2ccncc2)cc1)C1COc2ccccc2O1 (stereo not given) ... 64
O=C(Nc1ccc(-c2c[nH]cn2)cc1)C1COc2ccccc2O1 (stereo not given) ... 87

Then there is this molecule:
## Input So what's the measured inhibition at 10 µM for this one? COc1cc(-c2cn[nH]c2)ccc1NC(=O)C1COc2ccccc2O1 (stereo not given)
## Output 93

----------
Each record here notes measured AUC.
assay.procedure: in vivo
test.parameters: Sprague-Dawley, rat, plasma, iv, 1 mg/kg
Give the number; µM·h is assumed, so skip it.

Consider the following illustrative entries.
O=C(Nc1ccc(-c2c[nH]cn2)cc1)C1COc2ccccc2O1 (centres undefined) ... 2.8
COc1cc(-c2cn[nH]c2)ccc1NC(=O)C1COc2ccccc2O1 (centres undefined) ... 4.3
CN(C)CCOc1cc(-c2cn[nH]c2)ccc1NC(=O)C1COc2ccccc2O1 (centres undefined) ... 0.7

Shifting focus to the compound that follows.
## Input State the recorded AUC for this entry: O=C(Nc1nc(-c2ccncc2)cs1)C1COc2ccccc2O1 (centres undefined)
## Output 0.3

----------
assay.procedure: Volume of distribution in Sprague-Dawley rat at 1 mg/kg, iv
test.parameters: in vivo
reported.endpoint: Vd (L/kg)
Return type: number; implicit unit L/kg.

Observe how each entry below is paired with its result.
O=C(Nc1nc(-c2ccncc2)cs1)C1COc2ccccc2O1 (centres undefined) ... 3.7
O=C(Nc1ccc(-c2c[nH]cn2)cc1)C1COc2ccccc2O1 (centres undefined) ... 1.9
CN(C)CCOc1cc(-c2cn[nH]c2)ccc1NC(=O)C1COc2ccccc2O1 (centres undefined) ... 3

Consider now this further molecule.
## Input Endpoint output: Vd of O=C(Nc1ccc(-c2ccncc2)cc1)C1COc2ccccc2O1 (centres undefined) . Value?
## Output 5.3
